Where these numbers come from: patent US20200079876A1

- System under test: T1, Pro-C1s
- T1 construct: also called purified pro-C1s protein
- T1 chain: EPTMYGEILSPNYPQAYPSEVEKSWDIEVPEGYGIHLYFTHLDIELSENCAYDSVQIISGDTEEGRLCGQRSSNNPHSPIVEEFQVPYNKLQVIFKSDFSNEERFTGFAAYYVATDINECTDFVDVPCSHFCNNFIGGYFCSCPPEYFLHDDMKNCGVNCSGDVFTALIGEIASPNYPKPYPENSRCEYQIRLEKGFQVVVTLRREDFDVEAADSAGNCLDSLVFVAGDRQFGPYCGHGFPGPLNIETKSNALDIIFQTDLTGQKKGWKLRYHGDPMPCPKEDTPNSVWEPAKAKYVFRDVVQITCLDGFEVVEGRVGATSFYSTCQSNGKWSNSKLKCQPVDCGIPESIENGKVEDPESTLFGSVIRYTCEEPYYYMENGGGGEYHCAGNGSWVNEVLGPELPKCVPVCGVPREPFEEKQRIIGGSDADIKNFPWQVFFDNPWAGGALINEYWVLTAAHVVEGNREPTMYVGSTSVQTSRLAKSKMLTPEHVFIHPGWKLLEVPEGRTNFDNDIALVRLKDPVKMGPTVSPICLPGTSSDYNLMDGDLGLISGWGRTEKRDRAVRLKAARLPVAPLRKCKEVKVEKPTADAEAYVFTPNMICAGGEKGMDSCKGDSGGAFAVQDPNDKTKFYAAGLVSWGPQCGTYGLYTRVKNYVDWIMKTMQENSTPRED
- Protocol: bio-layer interferometry (BLI), kinetic analysis
Collected pKd values appear next to each entry.
Scale explanation: pKd corresponds to minus log10 of a concentration expressed in moles per litre.

Binder | pKd
antibody IPN-M33 (antibody, V domains shown, Mouse monoclonal antibody (NZBW hybridoma)) VH: QVKLQQSGPELVKPGTSVRISCKTSGYSFTGYYMHWVKQSPEKSLEWIGEINPSIGDITYNQRFKAKATLTVDKSSSTAYMQLKSLTSEDSAVYYCASDYYGGGFAWFAYWGQGTLVTVSA VL: DIVMTQSPAIMSASSGEKVTMTCSASSSINYMHWYQQKPGTSPKRWIYDTSKLASGVPARFSGSGSGTSYSLTISSMEAEDTATYYCHQRSDSLTFGSGTKLEIK | 9.52

Here is the next item to consider.
// pKd lookup, key: antibody IPN-M11 (antibody, V domains shown, Mouse monoclonal antibody (NZBW hybridoma)) VH: QVQLQQSGAELVRPGASVKLSCTASGFNIKDDYIHWVKQRPEQGLEWIGRIDPADDHTKYAPKFQDKATMTADTSSNTACLQLNSLTSEDTAVYYCAIYGSGWAWFPYWGQGTLVSVSA VL: DIVMTQSPDYLAVSLGQRAPISCKASQSVDYDGDSYMNWYQQKPGQPPKLLIYAASNLEFGIPTRFSGSGFGTDFPLNIHPVEEEDAATYYCQQSNEDPWTFGGGPKLEIK
7.45
